B1: VH:VL chains; a variant is named by its letters at X, in order (parent)
chain 1: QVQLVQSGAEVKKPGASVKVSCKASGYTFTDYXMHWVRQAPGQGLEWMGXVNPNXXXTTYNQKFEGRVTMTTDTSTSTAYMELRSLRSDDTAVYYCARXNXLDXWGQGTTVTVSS
chain 2: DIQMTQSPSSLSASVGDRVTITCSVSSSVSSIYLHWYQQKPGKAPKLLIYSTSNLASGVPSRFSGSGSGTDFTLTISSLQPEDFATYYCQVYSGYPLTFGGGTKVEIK

- Variants of: B1
- test protocol: yeast display scFab, FACS + sequencing
- condition summary: with MET
The other results are listed elsewhere or left out. No count for the full screen is at hand.
quantity measured: antigen binding call

INSERT INTO measurements (mutant_name, quantity_measured, result) VALUES
  ('VTGESAAV', 'antigen binding call', 'no binding'),
  ('YRKRGSLV', 'antigen binding call', 'binds'),
  ('DARADSGV', 'antigen binding call', 'no binding'),
  ('YRAGGYVF', 'antigen binding call', 'binds'),
  ('VTERDDAV', 'antigen binding call', 'no binding'),
  ('AKGEDSVF', 'antigen binding call', 'no binding'),
  ('YRKGSSGV', 'antigen binding call', 'binds'),
  ('YRKRGDVV', 'antigen binding call', 'binds'),
  ('YRRGGYVD', 'antigen binding call', 'no binding'),
  ('YRRRGYVF', 'antigen binding call', 'binds'),
  ('VTTKGDVF', 'antigen binding call', 'no binding');
